# Target Entity: T1, PHF-tau (paired helical filament tau isolated from Alzheimer's disease brain) (human, UniProt P10636-8 2-441, limits assumed, hyper-phosphorylated, aggregated; sites not listed for the preparation)
# T1 construct: also called enriched PHF-tau; ePHF-tau
# T1 sequence (P10636 other isoform, or with tags, fused parts or gaps limits assumed): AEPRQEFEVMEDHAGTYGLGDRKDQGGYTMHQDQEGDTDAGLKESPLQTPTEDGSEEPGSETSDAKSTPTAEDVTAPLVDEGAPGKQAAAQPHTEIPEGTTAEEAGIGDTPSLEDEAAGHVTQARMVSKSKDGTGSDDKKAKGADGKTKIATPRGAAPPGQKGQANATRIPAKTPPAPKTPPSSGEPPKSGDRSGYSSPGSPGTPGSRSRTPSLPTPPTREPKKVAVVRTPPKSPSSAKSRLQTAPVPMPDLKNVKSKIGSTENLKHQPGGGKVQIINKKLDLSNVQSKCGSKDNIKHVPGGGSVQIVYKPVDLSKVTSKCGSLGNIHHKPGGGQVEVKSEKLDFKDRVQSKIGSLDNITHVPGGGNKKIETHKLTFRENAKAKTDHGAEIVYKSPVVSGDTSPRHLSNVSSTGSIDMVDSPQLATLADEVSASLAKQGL
# Method Description: SPR ProteOn, PHF-tau capture-coupled via HT7, bivalent model
The following binders are shown together with reported koff values.

Binder	Reading Unit	koff
B280 (antibody, human IgG1, V domains shown, Humanized (HFA) PT3 variant, human IgG1/kappa; also called VH91/VL80) VH: EVQLLESGGGLVQPGGSLRLSCAASGFTFSSYAMSWVRQAPGKGLEWVSSISKGGNTYYADSVKGRFTISRDNSKNTLYLQMNSLRAEDTAVYYCAKGWGDYGWFAYWGQVTLVTVSS VL: DIVMTQTPLSSPVTLGQPASISCKASQDINRYLNWLQQRPGQPPRLLIYRANRLLDGVPDRFSGSGAGTDFTLKISRVEAEDVGVYYCLQYDEFPLTFGQGTKLEIK	s⁻¹	5.63e-05
B297 (antibody, human IgG1, V domains shown, Humanized (HFA) PT3 variant, human IgG1/kappa; it is built from VL77 with D56S; also called VH93/VL78) VH: QVQLVESGGGLVKPGGSLRLSCAASGFTFSSYAMSWIRQAPGKGLEWVSSISKGGNTYYADSVKGRFTISRDNAKNSLYLQMNSLRAEDTAVYYCARGWGDYGWFAYWGQVTLVTVSS VL: DIQMTQSPSSLSASVGDRVTITCKASQDINRYLNWFQQKPGKAPKSLIYRANRLLSGVPSRFSGSGSGTDFTLTISSLQPEDFATYYCLQYDEFPLTFGQGTKLEIK	s⁻¹	6.03e-05
B352 (IgG4 mAb) (antibody, V domains shown, IgG4 variant of B296 with the same variable regions; also called B296 as hIgG4) VH: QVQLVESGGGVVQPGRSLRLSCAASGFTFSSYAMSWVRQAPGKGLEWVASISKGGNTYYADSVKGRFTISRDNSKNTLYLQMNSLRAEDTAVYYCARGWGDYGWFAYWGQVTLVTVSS VL: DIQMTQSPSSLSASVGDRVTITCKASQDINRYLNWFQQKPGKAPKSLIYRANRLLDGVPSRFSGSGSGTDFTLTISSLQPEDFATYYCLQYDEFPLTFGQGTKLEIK	s⁻¹	1.11e-05
